These data points were gathered from PubChem BioAssay (NCI).

# Tested on: MOLT-4 leukemia
# EXPERIMENT DESCRIPTION: NCI-60 one-dose screen, 48 h
# RUN CONDITIONS: 10 µM unless noted
About 83,000 compounds went through this panel and 20% of them were active in at least one assay; those are over-represented in the sample as a whole. Calls of active or inactive are those of the source. Rule for the calls: active = growth percent below 10; inactive = the rest.
Output constraint: value belongs to Y = active, N = inactive

INSERT INTO assay_data (compound, classification) VALUES
  ('CSCC[C@@H]1C(=O)N(C)[C@H](C(C)(C)C)N1C(=O)c1ccccc1', 'N'),
  ('COc1nc(Nc2cccc(C(F)(F)F)c2)nc(OC)n1', 'N'),
  ('COc1ccc(/C=N/NC(=O)COCC(=O)N/N=C/c2ccc(OC)cc2)cc1', 'N'),
  ('OCCNc1ccccc1', 'N'),
  ('N#Cc1ccc2nc[nH]c2c1', 'N');

Per the assay record, what outcome was assigned to `CCCCOC(=O)c1ccccc1O` ?
N

Please do the same for `Cc1ccc(C)c(CN(C)C)c1O` as well.
N

Please do the same for `CCOC(=O)CO` as well.
N

Please do the same for `OC1Cc2ccccc2C1` as well.
N

Please do the same for `O=C(O)Cc1ccccn1` as well.
N

Please do the same for CN1CCCN(C(c2ccccc2)c2ccc(Cl)cc2)CC1 (stereo not given) as well.
N

Please do the same for `CC1(C)CCC(C)(C)NC(=S)N1` as well.
N

Please do the same for `CCC(/C=C\C(C)=O)CC` as well.
N

###

# System: OVCAR-3 ovarian
# EXPERIMENT DESCRIPTION: NCI-60 one-dose screen, 48 h (100 = growth as untreated, 0 = no growth, -100 = all killed)
# RUN CONDITIONS: 10 µM unless noted
Compounds without any hit were thinned out: in the full panel of roughly 83,000, 20% have a hit.
Listed compounds paired with reported growth
Please respond with the number in % and leave the unit unwritten.

Worked cases, answers included:
INSERT INTO assay_data (smiles_text, endpoint, units_symbol, experimental_result) VALUES
  ('O=S1(=O)c2ccccc2Oc2ccccc21', 'growth', '%', 114),
  ('COc1ccc2c(ccc[n+]2C)c1', 'growth', '%', 82.7),
  ('S=C=Nc1ccc2ccccc2c1', 'growth', '%', 114),
  ('CCNc1ccc2ccccc2c1N=Nc1ccc(N=Nc2ccccc2)cc1', 'growth', '%', 109),
  ('OC1Cc2ccccc2C1', 'growth', '%', 104);

So what does the record say about growth for `Cc1[nH]c(=S)[nH]c(=O)c1C` ?
118

Please do the same for `COc1cc(N)c2ncccc2c1Cl` as well.
118

Please do the same for `Cn1c(=O)c2[nH]c(CCCCC(=O)O)nc2n(C)c1=O` as well.
113

###

# Tested on: HCT-116 colon
# EXPERIMENT DESCRIPTION: NCI-60 one-dose screen, 48 h (100 = growth as untreated, 0 = no growth, -100 = all killed)
# RUN CONDITIONS: 10 µM unless noted
Compounds without any hit were thinned out: in the full panel of roughly 83,000, 20% have a hit.
With a cut-off of 90%, any growth strictly below it is called criterion met; any growth meeting it or above is called criterion not met.

Solved entries (count: 3):
INSERT INTO assay_data (molecule, classification) VALUES
  ('Nc1ncc([N+](=O)[O-])cn1', 'criterion not met'),
  ('ClCc1cccc2c(CCl)cccc12', 'criterion met'),
  ('COc1cc(OC)c(NC(=O)C(Sc2nc(C)cc(C)c2C#N)c2ccccc2)cc1Cl (stereo not drawn)', 'criterion met');

Decide: growth of `Clc1cccc(Cl)c1CSc1nc2ccccc2n2cccc12` strictly below 90%?
criterion met

Please do the same for `Cc1onc(-c2ccccc2Cl)c1C(=O)Cl` as well.
criterion not met

Please do the same for `COc1cc(C(=O)N2CCN(c3ccccc3)CC2)c2ccccc2n1` as well.
criterion met

Please do the same for `Cc1ccc(NCN2C(=O)c3ccccc3C2=O)c(C)n1` as well.
criterion not met

Please do the same for `Nc1nc2nnc(-c3ccccc3)c(-c3ccccc3)n2n1` as well.
criterion not met

Please do the same for O=c1n(CC2CO2)c(=O)n(CC2CO2)n1CC1CO1 (stereo not drawn) as well.
criterion met

Please do the same for NNc1ncnc2c1ncn2C1OC(CO)C(O)C1O (stereo not drawn) as well.
criterion met

Please do the same for `CCOC(C=O)OCC` as well.
criterion not met

###

# Test system: LOX IMVI melanoma
# EXPERIMENT DESCRIPTION: NCI-60 one-dose screen, 48 h
# RUN CONDITIONS: 10 µM
This is part of a sample that, as a whole, favours compounds with a hit. Of some 83,000 tested, about 20% had one in any assay. Active and inactive are the calls of the source. The calls were made as follows: active = growth percent below 10; inactive = the rest.
Output constraint: value belongs to active, inactive

Solved entries (count: 2):
INSERT INTO assay_data (molecule, test_target, classification) VALUES
  ('C/C=C/C1OCC(CC)C(CCC)O1 (centres undefined)', 'LOX IMVI melanoma', 'inactive'),
  ('CCOC(OCC)C(=O)c1ccccc1', 'LOX IMVI melanoma', 'inactive');

Per the assay record, what outcome was assigned to CC1CCC(C)(C)c2ccccc21 (centres undefined) ?
inactive

Please do the same for O=C1NC(=O)C(c2ccccc2)O1 (centres undefined) as well.
inactive

Please do the same for CCN1CCCC(N2c3ccccc3Sc3ccccc32)C1 (centres undefined) as well.
inactive

Please do the same for `CCCNS(=O)(=O)c1ccc(Cl)cc1` as well.
inactive

###

Listed compounds paired with reported growth
# Test system: EKVX NSCLC
# EXPERIMENT DESCRIPTION: NCI-60 one-dose screen, 48 h (100 = growth as untreated, 0 = no growth, -100 = all killed)
# RUN CONDITIONS: 10 µM unless noted
The panel holds about 83,000 compounds, 20% with a hit somewhere; the sample as a whole holds those more often.
Please respond with the number in % and leave the unit unwritten.

Worked cases, answers included:
INSERT INTO results (compound, test_target, endpoint, experimental_result) VALUES
  ('O=[n+]1ccn([O-])c2ccccc21', 'EKVX NSCLC', 'growth', 104),
  ('CC(c1ccccc1)N(C)C (configuration not stated)', 'EKVX NSCLC', 'growth', 122),
  ('NC(=O)N1CCOCC1', 'EKVX NSCLC', 'growth', 108),
  ('NC(=O)c1cc2c3ccccc3ccn2c1-c1ccccc1', 'EKVX NSCLC', 'growth', 14.5),
  ('O=C(c1cccc(C(=O)c2ccc3c4c(cccc24)C(=O)N(c2ccccc2)C3=O)c1)c1ccc2c3c(cccc13)C(=O)N(c1ccccc1)C2=O', 'EKVX NSCLC', 'growth', 104);

So what does the record say about growth for `CN(CCCN(C)CCC1CCCCC1)CCC1CCCCC1` ?
61.4

###

# System: HCT-116 colon
# EXPERIMENT DESCRIPTION: NCI-60 one-dose screen, 48 h
# RUN CONDITIONS: 10 µM unless noted
The panel holds about 83,000 compounds, 20% with a hit somewhere; the sample as a whole holds those more often. Calls of active or inactive are those of the source. The calls were made as follows: active = growth percent below 10; inactive = the rest.
Output constraint: value belongs to Yes (active), No (inactive)

Solved entries (count: 8):
INSERT INTO measurements (compound, classification) VALUES
  ('CC(=O)NC(CCc1ccc(Cl)c(Cl)c1)c1cccc(O)c(=O)c1 (centres undefined)', 'No'),
  ('ON1CCCC1', 'No'),
  ('O=C1C=C(c2ccccc2)C(O)(c2ccccc2)C1 (centres undefined)', 'No'),
  ('CCN1CCCC(N2c3ccccc3Sc3ccccc32)C1 (centres undefined)', 'No'),
  ('COC(=O)C1(CC(C)=O)NC(=S)NC(=O)C1C#N (centres undefined)', 'No'),
  ('BrCc1cccc(C[P+](c2ccccc2)(c2ccccc2)c2ccccc2)c1', 'No'),
  ('CCOP(=O)(OCC)/C(=C\N1C(=O)CC(=O)NC1=S)C(=O)OC', 'No'),
  ('Clc1ncnc2nc[nH]c12', 'No');

Per the assay record, what outcome was assigned to `C=C(C)COc1ccc(C(C)(C)C)cc1` ?
No

Please do the same for `CC(=O)Nc1ncc(S(=O)(=O)c2ccc([N+](=O)[O-])cc2)s1` as well.
No

Please do the same for `Cc1ccc(C)c(CN(C)C)c1O` as well.
No

Please do the same for `O=C(O)CSCC(=O)Nc1cc(C(F)(F)F)ccc1Cl` as well.
No

Please do the same for `CCOS(=O)(=O)c1ccc([N+](=O)[O-])cc1` as well.
No

Please do the same for `O=C(CC(CC(=O)c1ccccc1)c1ccccn1)c1ccccc1` as well.
No

###

# Test system: OVCAR-3 ovarian
# EXPERIMENT DESCRIPTION: NCI-60 one-dose screen, 48 h (100 = growth as untreated, 0 = no growth, -100 = all killed)
# RUN CONDITIONS: 10 µM unless noted
About 83,000 compounds went through this panel and 20% of them were active in at least one assay; those are over-represented in the sample as a whole.
ENDPOINT: growth (%)
Please respond with the number in % and leave the unit unwritten.

INSERT INTO results (compound, experimental_result) VALUES
  ('Cc1cc(CC(=O)NCCO)n(CCO)c(=O)c1', 106),
  ('COc1cc(C(=O)O)c(O)c(C(C)(C)C)c1', 104),
  ('Oc1ccc2ccccc2c1CN1CCOCC1', 120),
  ('C=CCN1CCCC1=O', 128),
  ('N#C/C(=C\c1ccc(C#N)cc1)C(=O)c1ccccc1', 105),
  ('CC(CC(CCC(=O)O)(c1ccccc1)c1ccccc1)N(C)C (configuration not stated)', 67.3);

Field: next compound
So what does the record say about growth for CC1(C)OC2C(CO)OC(n3ccc(=O)[nH]c3=O)C2O1 (configuration not stated) ?
107
